Molecular target: CCK-B receptor (Cavia porcellus, UniProt H0VZC5)
Construct: CCK-B receptor (guinea pig cortex assay); from tissue; host or cells: guinea pig cortex
Sequence (H0VZC5 1-426): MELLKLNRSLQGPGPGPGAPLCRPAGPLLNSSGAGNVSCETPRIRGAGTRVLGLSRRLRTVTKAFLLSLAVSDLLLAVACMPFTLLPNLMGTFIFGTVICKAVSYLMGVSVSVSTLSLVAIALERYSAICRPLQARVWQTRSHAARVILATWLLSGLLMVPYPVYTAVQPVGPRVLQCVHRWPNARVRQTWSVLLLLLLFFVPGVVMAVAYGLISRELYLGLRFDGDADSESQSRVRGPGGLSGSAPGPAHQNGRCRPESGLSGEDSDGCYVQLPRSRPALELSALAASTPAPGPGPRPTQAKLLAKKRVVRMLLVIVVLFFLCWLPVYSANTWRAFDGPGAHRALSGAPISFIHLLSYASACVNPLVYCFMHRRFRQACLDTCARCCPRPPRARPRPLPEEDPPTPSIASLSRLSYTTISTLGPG
Assay: CCK receptor binding, CCK-B (guinea pig cortex assay)
Settings: CCK-B receptor, guinea pig cortex assay; read-out: pKi CCK-B (converted)
measured quantity: Ki (nM)

// solved cases for Ki follow
compound	readout number
O=C(Nc1ccccc1)NC1C(=O)N(CCCO)c2ccccc2N(CC23CC4CC(CC(C4)C2)C3)C1=O (stereo not shown) [Example 14]	0.389
CCCCN1C(=O)C(NC(=O)Nc2ccc(OC)cc2)C(=O)N(CCC(C)C)c2ccccc21 (stereo not shown) [Example 12]	2.04
CC(C)CCN1C(=O)C(NC(=O)Nc2ccccc2)C(=O)N(CC23CC4CC(CC(C4)C2)C3)c2ccccc21 (stereo not shown) [Example 1]	1.38
CN1C(=O)C(NC(=O)Nc2ccccc2)C(=O)N(CC23CC4CC(CC(C4)C2)C3)c2ccccc21 (single isomer, unassigned; (-)) [Example 8]	1

P = O=C(Nc1ccccc1)NC1C(=O)N(CCO)c2ccccc2N(CC23CC4CC(CC(C4)C2)C3)C1=O (single isomer, unassigned; (-)) [Example 11]
Q = O=C(Nc1ccccc1)NC1C(=O)N(CCO)c2ccccc2N(CC23CC4CC(CC(C4)C2)C3)C1=O (stereo not shown) [Example 9]
R = Cc1cccc(NC(=O)NC2C(=O)N(CCO)c3ccccc3N(CC34CC5CC(CC(C5)C3)C4)C2=O)c1 (stereo not shown) [Example 10]
Query: Highest Ki first, then in falling order down to the smallest. Use the labels to give the requested order.
Result: Q, R, P

* * *

Biological target: CCK-A receptor
Assay: CCK receptor binding, CCK-A (Pancreas Assay)
measured quantity: pKi CCK-A

compound	pKi CCK-A
CC(C)CCN1C(=O)C(NC(=O)Nc2ccccc2)C(=O)N(CC23CC4CC(CC(C4)C2)C3)c2ccccc21 (stereo not shown)	6.54
CC(C)CCN1C(=O)C(NC(=O)Nc2cccc(N(C)C)c2)C(=O)N(CC23CC4CC(CC(C4)C2)C3)c2ccccc21 (stereo not shown)	6.02
O=C(Nc1ccccc1)NC1C(=O)N(CCCO)c2ccccc2N(CC23CC4CC(CC(C4)C2)C3)C1=O (stereo not shown)	6.09
CC(C)CCN1C(=O)C(NC(=O)Oc2cccc(N(C)C)c2)C(=O)N(CC23CC4CC(CC(C4)C2)C3)c2ccccc21 (stereo not shown)	5.80
Cc1cccc(NC(=O)NC2C(=O)N(CCO)c3ccccc3N(CC34CC5CC(CC(C5)C3)C4)C2=O)c1 (stereo not shown)	6.8
CCCCN1C(=O)C(NC(=O)Nc2ccc(OC)cc2)C(=O)N(CCC(C)C)c2ccccc21 (stereo not shown)	6.16
O=C(Nc1ccccc1)NC1C(=O)N(CC23CC4CC(CC(C4)C2)C3)c2ccccc2N(C2CCCCC2)C1=O (stereo not shown)	6.25
